# Test system: p-4EBP1 (Ser65)
# TEST_SUMMARY: In vitro inhibition of protein phosphorylation, Western blot in MV4-11 cells
# Type: cell-based, human
# TEST_SETTINGS: Homo sapiens, MV4-11; MV411 cells, 24 h treatment; read-out: calculated cellular IC50 for biomarker inhibition, p-4EBP1 (Ser65)
pIC50: −log10 of the molar value.
PROPERTY_LABEL: pIC50

>>> reported_measurement("Brc1c(Br)c(Br)c2[nH]c(N3CCNCC3)nc2c1Br [Compound 20]")
5.95

---

# Test system: human myelomonocytic, biphenotypic leukemia MV4-11 cells
# TEST_SUMMARY: Growth inhibition test (MTS) on MV4-11 cells
# Format: cell-based
# TEST_SETTINGS: Homo sapiens, MV4-11, 72 hours, read-out: MV-4-11 ED50
pIC50: −log10 of the molar value.
Let's look at some compounds and their measured pIC50.
PROPERTY_LABEL: pIC50

>>> reported_measurement("CN(C)CCN(Cc1ccccc1)c1nc2c(Br)c(Br)c(Br)c(Br)c2[nH]1")
5.31
>>> reported_measurement("Brc1c(Br)c(Br)c2[nH]c(N3CCN4CCC3CC4)nc2c1Br")
5.26
>>> reported_measurement("CCCn1c(N2CCNCC2)nc2c(Br)c(Br)c(Br)c(Br)c21")
6.25
>>> reported_measurement("CCN1CCCC1CNc1nc2c(Br)c(Br)c(Br)c(Br)c2[nH]1 (centres unmarked) [Compound 265a]")
5.65
>>> reported_measurement("Brc1c(Br)c(Br)c2[nH]c(N3CCOCC3)nc2c1Br")
5.17
>>> reported_measurement("Brc1c(Br)c(Br)c2[nH]c(N[C@H]3COC[C@@H]3N3CCCCC3)nc2c1Br")
5.48
>>> reported_measurement("N[C@H]1CCCC[C@@H]1Nc1nc2c(Br)c(Br)c(Br)c(Br)c2[nH]1 [Compound 304SS]")
6.01
>>> reported_measurement("CN(C)CCCN(Cc1ccccc1)c1nc2c(Br)c(Br)c(Br)c(Br)c2[nH]1")
5.58
>>> reported_measurement("CN(C)CCCN1CCN(c2nc3c(Br)c(Br)c(Br)c(Br)c3[nH]2)CC1")
5.48
>>> reported_measurement("Oc1ccc(CCNc2nc3c(Br)c(Br)c(Br)c(Br)c3[nH]2)cc1")
5.16
>>> reported_measurement("NC1CCC(Nc2nc3c(Br)c(Br)c(Br)c(Br)c3[nH]2)CC1 (centres unmarked)")
5.38
>>> reported_measurement("COc1ccc(Nc2nc3c(Br)c(Br)c(Br)c(Br)c3[nH]2)cc1OC")
5.22
>>> reported_measurement("N[C@@H]1CCCC[C@H]1Nc1nc2c(Br)c(Br)c(Br)c(Br)c2[nH]1 [Compound 304RR]")
6.60
>>> reported_measurement("Brc1c(Br)c(Br)c2c(nc(N3CCNCC3)n2Cc2ccccc2)c1Br")
5.89
>>> reported_measurement("Brc1c(Br)c(Br)c2[nH]c(Nc3ccc4ccccc4c3)nc2c1Br")
5.19

---

# TESTED_SYSTEM: PIM-1 (Homo sapiens (Human))
# Sequence (P11309 whole entry): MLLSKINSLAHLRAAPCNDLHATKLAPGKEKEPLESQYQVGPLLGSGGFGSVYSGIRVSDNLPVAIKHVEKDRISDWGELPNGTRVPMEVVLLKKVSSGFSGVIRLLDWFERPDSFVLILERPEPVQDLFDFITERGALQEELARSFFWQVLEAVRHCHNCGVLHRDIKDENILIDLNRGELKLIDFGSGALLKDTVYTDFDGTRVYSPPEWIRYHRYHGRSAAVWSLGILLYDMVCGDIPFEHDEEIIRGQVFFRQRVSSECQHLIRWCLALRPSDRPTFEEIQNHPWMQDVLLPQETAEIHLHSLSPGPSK
Let's look at some compounds and their measured IC50.
PROPERTY_LABEL: IC50

>>> reported_measurement("Brc1c(Br)c(Br)c2[nH]c(NCc3ccccc3)nc2c1Br [Compound 82]")
"200 nM"
>>> reported_measurement("Brc1c(Br)c(Br)c2[nH]c(N[C@H]3COC[C@@H]3N3CCCC3)nc2c1Br [Compound 337]")
"25.6 nM"
>>> reported_measurement("Brc1c(Br)c(Br)c2[nH]cnc2c1Br [TBI, 4,5,6,7-tetrabromo-1H-benzimidazole, reference compound]")
"102 nM"
>>> reported_measurement("Brc1c(Br)c(Br)c2[nH]c(N3CCN4CCC3CC4)nc2c1Br [Compound 350]")
"32.7 nM"
>>> reported_measurement("N[C@@H]1CCCC[C@H]1Nc1nc2c(Br)c(Br)c(Br)c(Br)c2[nH]1 [Compound 304RR]")
"5.26 nM"
>>> reported_measurement("N[C@H]1CCCC[C@H]1Nc1nc2c(Br)c(Br)c(Br)c(Br)c2[nH]1 (relative stereo) [Compound 304cis]")
"6.9 nM"
>>> reported_measurement("Brc1c(Br)c(Br)c2[nH]c(NCCN3CCCC3)nc2c1Br [Compound 14]")
"57.8 nM"
>>> reported_measurement("N[C@@H]1CC=CC[C@H]1Nc1nc2c(Br)c(Br)c(Br)c(Br)c2[nH]1 (relative stereo) [Compound 331]")
"14.8 nM"
>>> reported_measurement("Fc1ccc(CNc2nc3c(Br)c(Br)c(Br)c(Br)c3[nH]2)cc1F [Compound 296]")
"170 nM"
>>> reported_measurement("OC1CCC(Nc2nc3c(Br)c(Br)c(Br)c(Br)c3[nH]2)CC1 (stereo not drawn) [Compound 309]")
"15.9 nM"
>>> reported_measurement("Brc1c(Br)c(Br)c2[nH]c(NCCc3ccccn3)nc2c1Br [Compound 128]")
"71.3 nM"
>>> reported_measurement("Brc1c(Br)c(Br)c2[nH]c(NCC3CCNCC3)nc2c1Br [Compound 67]")
"65.2 nM"
>>> reported_measurement("Brc1c(Br)c(Br)c2[nH]c(N3CCC(C4CCNCC4)CC3)nc2c1Br [Compound 386]")
"58 nM"
>>> reported_measurement("Cc1c(Nc2nc3c(Br)c(Br)c(Br)c(Br)c3[nH]2)cccc1-c1nncn1C [Compound 248]")
"48.9 nM"
>>> reported_measurement("Brc1c(Br)c(Br)c2[nH]c(NCCN3CCOCC3)nc2c1Br [Compound 16]")
"107 nM"
>>> reported_measurement("Oc1ncc(Nc2nc3c(Br)c(Br)c(Br)c(Br)c3[nH]2)c(O)n1 [Compound 303]")
"128 nM"
>>> reported_measurement("Brc1c(Br)c(Br)c2[nH]c(NCCN3CCCCC3)nc2c1Br [Compound 13]")
"319 nM"
>>> reported_measurement("Brc1c(Br)c(Br)c2[nH]c(NCCCN3CCOCC3)nc2c1Br [Compound 192]")
"45.4 nM"
>>> reported_measurement("CN(C)CCCN1CCN(c2nc3c(Br)c(Br)c(Br)c(Br)c3[nH]2)CC1 [Compound 75]")
"279 nM"
>>> reported_measurement("CN(C)c1nc2c(Br)c(Br)c(Br)c(Br)c2[nH]1 [DMAT, reference compound]")
"31 nM"
>>> reported_measurement("CN1CCC(N(C)CC(Nc2nc3c(Br)c(Br)c(Br)c(Br)c3[nH]2)c2ccccc2)CC1 (stereo not drawn) [Compound 263]")
"47.5 nM"
>>> reported_measurement("NC1CCCC(Nc2nc3c(Br)c(Br)c(Br)c(Br)c3[nH]2)C1 (stereo not drawn) [Compound 336]")
"18.8 nM"
>>> reported_measurement("Brc1c(Br)c(Br)c2c(nc(N3CCNCC3)n2Cc2ccccc2)c1Br [Compound 374]")
"107 nM"
>>> reported_measurement("CC(C)NC1CCCCC1Nc1nc2c(Br)c(Br)c(Br)c(Br)c2[nH]1 (stereo not drawn) [Compound 369]")
"41.1 nM"
>>> reported_measurement("CN(C)CCN1CCC(CNc2nc3c(Br)c(Br)c(Br)c(Br)c3[nH]2)C1 (stereo not drawn) [Compound 166]")
"51 nM"
>>> reported_measurement("OCCCN1CCN(c2nc3c(Br)c(Br)c(Br)c(Br)c3[nH]2)CC1 [Compound 383]")
"94.4 nM"
>>> reported_measurement("Brc1c(Br)c(Br)c2c(Br)n[nH]c2c1Br [Compound K64, 3,4,5,6,7-pentabromo-1H-indazole, reference compound]")
"> 1000 nM"
>>> reported_measurement("Brc1c(Br)c(Br)c2[nH]nnc2c1Br [TBB, 4,5,6,7-tetrabromo-1Hbenzotriazole, reference compound]")
"> 1000 nM"
>>> reported_measurement("CN(C)c1nc2c(Br)c(Br)c(Br)c(Br)c2n1CC(=O)O [Compound K66, reference compound]")
"> 1000 nM"
>>> reported_measurement("Brc1c(Br)c(Br)c2[nH]c(N3CCNCC3)nc2c1Br [Compound 20]")
"16.9 nM"
>>> reported_measurement("CN1CCN(c2nc3c(Br)c(Br)c(Br)c(Br)c3[nH]2)CC1 [Compound 21]")
"41.9 nM"
>>> reported_measurement("N[C@H]1CCCC[C@@H]1Nc1nc2c(Br)c(Br)c(Br)c(Br)c2[nH]1 [Compound 304SS]")
"11.6 nM"
>>> reported_measurement("Brc1c(Br)c(Br)c2[nH]c(Nc3ccccn3)nc2c1Br [Compound 329]")
"47 nM"
>>> reported_measurement("N=C(N)N1CCN(c2nc3c(Br)c(Br)c(Br)c(Br)c3[nH]2)CC1 [Compound 392]")
"6.72 nM"
>>> reported_measurement("Brc1c(Br)c(Br)c2[nH]c(N3CCOCC3)nc2c1Br [Compound 19]")
"29.4 nM"
>>> reported_measurement("Nc1ccccc1Nc1nc2c(Br)c(Br)c(Br)c(Br)c2[nH]1 [Compound 332]")
"16.2 nM"
